Data origin: PubChem BioAssay AID1963866

- Tested on: PDC KRAS tumor spheroids with HUVEC/MSC, viability;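 also: spheroids exposed to compounds for seven days before readout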
- assaySummary: Anticancer human tumor 349418-098-R-PDC patient-derived lung adenocarcinoma cell line growth inhibition [KRAS2]
- reportedConditions: second compound 3.16 µM; first compound 0.1 µM; stronger effect = lower value
Rule: measured viability, T/C below 70% gets yes; anything equal to or greater than 70% gets no.

# strict comparison: is reported viability, T/C < 70%? input = CC(=O)OC12COC1CC(O)C1(C)C(=O)C(O)C3=C(C)C(OC(=O)C(O)C(NC(=O)OC(C)(C)C)c4ccccc4)CC(O)(C(OC(=O)c4ccccc4)C21)C3(C)C (stereo not given) + COc1cc2nc(C)nc(NC(C)c3cc(N)cc(C(F)(F)F)c3)c2cc1OC1CCOC1
yes

# strict comparison: is reported viability, T/C < 70%? input = COc1cc(Nc2ncc3c(n2)-c2ccc(Cl)cc2C(c2c(F)cccc2OC)=NC3)ccc1C(=O)O + C=CC(=O)N1CCN(c2nc(=O)n(-c3c(C)ccnc3C(C)C)c3nc(-c4c(O)cccc4F)c(F)cc23)C(C)C1
yes

# strict comparison: is reported viability, T/C < 70%? input = CN(C)C/C=C/C(=O)Nc1cc2c(Nc3ccc(F)c(Cl)c3)ncnc2cc1O[C@H]1CCOC1 + CC1OCC2(CCN(c3cnc(Sc4ccnc(N)c4Cl)c(N)n3)CC2)C1N
no

# strict comparison: is reported viability, T/C < 70%? input = CC(C)NCC(C(=O)N1CCN(c2ncnc3c2C(C)CC3O)CC1)c1ccc(Cl)cc1 (stereo not given) + CC1OCC2(CCN(c3cnc(Sc4ccnc(N)c4Cl)c(N)n3)CC2)C1N
no

# strict comparison: is reported viability, T/C < 70%? input = CC1COCCN1c1cc(-c2ccnn2C)c2ccnc(-c3ccn[nH]3)c2n1 (stereo not given) + C=CC(=O)N1CCN(c2nc(=O)n(-c3c(C)ccnc3C(C)C)c3nc(-c4c(O)cccc4F)c(F)cc23)C(C)C1
yes

# strict comparison: is reported viability, T/C < 70%? input = CN(C)C/C=C/C(=O)Nc1cc2c(Nc3ccc(F)c(Cl)c3)ncnc2cc1O[C@H]1CCOC1 + C=CC(=O)N1CCN(c2nc(=O)n(-c3c(C)ccnc3C(C)C)c3nc(-c4c(O)cccc4F)c(F)cc23)C(C)C1
yes

# strict comparison: is reported viability, T/C < 70%? input = O=C(c1cc(Cc2n[nH]c(=O)c3ccccc23)ccc1F)N1CCN(C(=O)C2CC2)CC1 + C=CC(=O)N1CCN(c2nc(=O)n(-c3c(C)ccnc3C(C)C)c3nc(-c4c(O)cccc4F)c(F)cc23)C(C)C1
yes

# strict comparison: is reported viability, T/C < 70%? input = CN(C)C/C=C/C(=O)Nc1cc2c(Nc3ccc(F)c(Cl)c3)ncnc2cc1O[C@H]1CCOC1 + COc1cc2nc(C)nc(NC(C)c3cc(N)cc(C(F)(F)F)c3)c2cc1OC1CCOC1
no

# strict comparison: is reported viability, T/C < 70%? input = COC(=O)c1ccc2c(C(=Nc3ccc(N(C)C(=O)CN4CCN(C)CC4)cc3)c3ccccc3)c(O)[nH]c2c1 + C=CC(=O)N1CCN(c2nc(OCC3CCCN3C)nc3c2CCN(c2cccc4cccc(C)c24)C3)CC1CC#N
yes

# strict comparison: is reported viability, T/C < 70%? input = CC1COCCN1c1cc(-c2ccnn2C)c2ccnc(-c3ccn[nH]3)c2n1 (stereo not given) + C=CC(=O)N1CCN(c2nc(OCC3CCCN3C)nc3c2CCN(c2cccc4cccc(C)c24)C3)CC1CC#N
yes
